Attribution: patent US20250129092A1

Target: AhR (Homo sapiens, UniProt P35869)
Sequence (P35869 11-848): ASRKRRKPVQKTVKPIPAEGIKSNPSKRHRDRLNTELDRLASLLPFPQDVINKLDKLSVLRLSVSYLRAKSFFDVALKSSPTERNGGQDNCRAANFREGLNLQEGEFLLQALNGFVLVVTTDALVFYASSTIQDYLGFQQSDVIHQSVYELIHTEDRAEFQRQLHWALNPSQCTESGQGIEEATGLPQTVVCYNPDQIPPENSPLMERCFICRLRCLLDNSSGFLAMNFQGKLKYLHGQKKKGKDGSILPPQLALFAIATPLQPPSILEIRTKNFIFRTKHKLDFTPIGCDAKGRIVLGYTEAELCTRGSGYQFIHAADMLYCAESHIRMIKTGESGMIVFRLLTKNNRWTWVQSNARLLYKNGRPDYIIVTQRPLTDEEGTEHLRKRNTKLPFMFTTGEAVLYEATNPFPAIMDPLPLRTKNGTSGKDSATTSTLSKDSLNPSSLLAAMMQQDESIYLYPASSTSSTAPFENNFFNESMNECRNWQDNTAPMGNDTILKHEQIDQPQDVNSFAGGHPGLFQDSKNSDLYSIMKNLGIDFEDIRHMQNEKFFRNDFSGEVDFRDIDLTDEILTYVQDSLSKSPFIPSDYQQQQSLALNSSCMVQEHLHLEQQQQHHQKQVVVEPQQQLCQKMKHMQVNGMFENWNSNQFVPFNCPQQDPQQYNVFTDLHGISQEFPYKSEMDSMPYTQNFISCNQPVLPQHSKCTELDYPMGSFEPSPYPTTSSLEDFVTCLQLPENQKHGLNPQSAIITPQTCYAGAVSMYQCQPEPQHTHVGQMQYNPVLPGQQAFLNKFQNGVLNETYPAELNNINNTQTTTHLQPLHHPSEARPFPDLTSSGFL
Assay: AhR antagonism in human PBMCs - inhibition of IL-22 release
Assay type: cell-based
Parameters: endogenous in cells
Details: human PBMCs activated with CD3/CD28 agonist mixture, 72 hrs, IL-22 ELISA; average; read-out: hPBMC Inhibition of CD3/CD28 induced IL-22 release: av. pIC50 (converted)
measure: IC50 (nM)

{"compound": "CCc1nc(C)c(-c2nc3c(c(NCCc4c[nH]c5ccccc45)n2)OCCN3)s1", "endpoint result": 141}
{"compound": "O=c1[nH]cccc1-c1nc2c(c(OCCc3c[nH]c4ccccc34)n1)OCCN2", "endpoint result": 1.7}

A = COC[C@@H]1COc2c(NCCc3c[nH]c4ccccc34)nc(-c3cc(F)cc(F)c3)nc2N1
B = Cc1ncc(-c2nc3c(c(NC4Cc5cccc6[nH]cc(c56)C4)n2)OCCN3)s1 (stereo not drawn)
C = CC(C)N1CCOc2c(NCCc3c[nH]c4ccccc34)nc(-c3cncc(F)c3)nc21
Prompt line: Give the ascending ranking of the items by reported IC50. Answer format: the labels, ordered as requested.
Response line: C, A, B
(C: 1.35 nM, A: 6.92 nM, B: 100 nM)

---

Biological target: AhR (Homo sapiens, UniProt P35869)
Test: AhR antagonism in U937 cells (Promega P450-Glo assay)
Assay type: cell-based
Set-up: endogenous in cells; host or cells: U937 cells
Details: CYP1A1 activity readout (Luciferin-CEE), head names VAF347, average, read-out: U937 Antagonist pIC50-VAF347: av. pIC50 (converted)
measure: IC50 (nM)

a = CC1COc2c(NCCc3c[nH]c4ccccc34)nc(-c3cncc(F)c3)nc2N1 (stereo not shown) [Example 5]
b = Fc1cccc(-c2nc3c(c(NCCc4c[nH]c5ccccc45)n2)OCCN3)c1 [Example 50]
c = Cc1[nH]c2c(F)cc(F)cc2c1CCNc1nc(-c2ccc[nH]c2=O)nc2c1OCCN2 [Example 42]
d = Cn1cccc(-c2nc3c(c(NCCc4c[nH]c5ccccc45)n2)OCCN3)c1=O [Example 19]
Prompt line: Parameters: sort_field (IC50), sort_dir (desc). In your reply, arrange the labels in the requested order.
Response line: c, d, b, a
(c: 209 nM, d: 51.3 nM, b: 5.5 nM, a: 1.86 nM)
